Value source: paper PMC6112376

tested on: HepG2 cells; conditions: HepG2 cells; single number from one experiment
endpoint: MMP assays efficacy (%) HepG2
Respond with the bare value in %.

Consider the following illustrative entries.
{"compound": "CC1C2CC(CC2C2CCCC(O)C2)C1(C)C (stereo not drawn)", "recordedNumber": -108}
{"compound": "CCCC(c1cc(C(C)(C)C)c(O)cc1C)c1cc(C(C)(C)C)c(O)cc1C", "recordedNumber": -100}
{"compound": "C[C@H]1C[C@H]2[C@@H]3CCC4=CC(=O)C=C[C@]4(C)[C@@]3(F)[C@@H](O)C[C@]2(C)[C@@]1(O)C(=O)CCl", "recordedNumber": -87}
{"compound": "Cc1cc(C(=C2C=CC(=N)C=C2)c2ccc(N)cc2)ccc1N", "recordedNumber": -96}
{"compound": "Cc1cc2c(cc1C(F)(F)F)N(C(=O)Nc1ccc(Oc3cccnc3C)nc1)CC2.Cl", "recordedNumber": -104}

Lookup: What does the data say about its MMP assays efficacy (%) HepG2? Entry: `C=CCc1cc(S(=O)(=O)c2ccc(O)c(CC=C)c2)ccc1O`
Found: -107

Lookup: Try this compound too: `O=C(OCC(COC(=O)c1ccccc1)(COC(=O)c1ccccc1)COC(=O)c1ccccc1)c1ccccc1`
Found: -52

Lookup: Follow-up item: CC(C)(C)OC(=O)c1ccc(O)cc1 [tert-Butyl 4-hydroxybenzoate]
Found: -105

Lookup: Try this compound too: `CC(=O)OCCN(CCOC(C)=O)c1ccc(N=Nc2ccc([N+](=O)[O-])cc2C#N)cc1`
Found: -71

* * *

test system: Caenorhabditis elegans (Bristol N2); experiment: C. elegans larval development and growth assay; details: 25 µM
endpoint: EXT: mean difference in nematode size relative to plate controls
Reply with just the number.

Reference set, count: 2
{"compound": "O=C(O)c1cc(O)c2c(c1)C(=O)c1cccc(O)c1C2=O", "systemName": "Caenorhabditis elegans (Bristol N2)", "recordedNumber": -0.09625}
{"compound": "NNc1nc(-c2ccc([N+](=O)[O-])cc2)cs1 [2-Hydrazino-4-(4-nitrophenyl)thiazole]", "systemName": "Caenorhabditis elegans (Bristol N2)", "recordedNumber": 0.3181}

Kindly consider the entry below.
Lookup: # lookup: EXT: mean difference in nematode size relative to plate controls of `CC(C)[C@@H]1NC(=O)[C@H](C)OC(=O)[C@@H](C(C)C)NC(=O)[C@@H](C(C)C)OC(=O)[C@H](C(C)C)NC(=O)[C@H](C)OC(=O)[C@@H](C(C)C)NC(=O)[C@@H](C(C)C)OC(=O)[C@H](C(C)C)NC(=O)[C@H](C)OC(=O)[C@@H](C(C)C)NC(=O)[C@@H](C(C)C)OC1=O`
Found: 0.0497

* * *

system: Caenorhabditis elegans (Bristol N2); assay: C. elegans larval development and growth assay; conditions: 75 µM
endpoint: EXT: mean difference in nematode size relative to plate controls
Lab note: write the figure by itself, no unit.

Examples with their reported EXT: mean difference in nematode size relative to plate controls follow.
{"compound": "CC[C@@H](C(=O)[C@@H](C)[C@@H](O)[C@H](C)CCc1ccc(C)c(O)c1C(=O)O)[C@H]1O[C@](CC)([C@H]2CC[C@](O)(CC)[C@H](C)O2)C[C@@H]1C [Lasalocid sodium, reference compound]", "recordedNumber": 1.778}
{"compound": "O=C1c2ccccc2C(=O)C1C(=O)C(c1ccccc1)c1ccc(Cl)cc1 (stereo not drawn)", "recordedNumber": 1.667}

Lookup: GET /values?readout=EXT: mean difference in nematode size relative to plate controls&item= CCC(C)c1cc([N+](=O)[O-])cc([N+](=O)[O-])c1O (stereo not drawn)
Found: 0.7162

* * *

Consider molecules characterized by their MMP assays efficacy (%) Rat Hepatocytes with rat primary hepatocytes.
Just the number please, in %, no unit attached.

Some molecules with known MMP assays efficacy (%) Rat Hepatocytes results, for comparison:
{"smilesRepresentation": "Oc1c(Br)c(Br)c(Br)c(Br)c1Br", "MMP assays efficacy (%) Rat Hepatocytes": -93}
{"smilesRepresentation": "O=[N+]([O-])c1c2ccccc2cc2ccccc12", "MMP assays efficacy (%) Rat Hepatocytes": -74}
{"smilesRepresentation": "Cl.Nc1c2ccccc2nc2ccccc12.O", "MMP assays efficacy (%) Rat Hepatocytes": -56}

Alright, here's another molecule for you.
Lookup: Recall the recorded MMP assays efficacy (%) Rat Hepatocytes for `CC(=O)C(Cl)(Cl)Cl` with rat primary hepatocytes and state it.
Found: -42

* * *

test system: HepG2 cells; assay: cells; conditions: Homo sapiens, HepG2, read-out: MMP assays efficacy (%) HepG2
The compounds listed here are annotated with their Emax.
Give the quantity in %, number only.

Known results for compounds:
{"compound": "ClC1=C(Cl)C2(Cl)C3C4CC(C5OC45)C3C1(Cl)C2(Cl)Cl (centres unmarked)", "Emax [%]": 55}
{"compound": "CC(C)(C)c1ccc(O)c(O)c1", "Emax [%]": 90}

Lookup: Request the reported Emax associated with `CN(C)c1ccc2nc3ccc(=[N+](C)C)cc-3sc2c1`
Found: 89

Lookup: Continue with `Cc1c(N)cccc1N`
Found: 85

Lookup: How about `Oc1ccc(-c2ccccc2)cc1Cl` ?
Found: 99

* * *

test system: Caenorhabditis elegans strain PE255; test: In vivo C. elegans ATP status assay; settings: 5 µM
Would you please tag the item MET when its LUM: mean difference in luminescence (ATP content) relative to plate controls is 0.4 or above, and NOT MET when it is below?

{"compound": "CC(C)[C@@H]1NC(=O)[C@H](C)OC(=O)[C@@H](C(C)C)NC(=O)[C@@H](C(C)C)OC(=O)[C@H](C(C)C)NC(=O)[C@H](C)OC(=O)[C@@H](C(C)C)NC(=O)[C@@H](C(C)C)OC(=O)[C@H](C(C)C)NC(=O)[C@H](C)OC(=O)[C@@H](C(C)C)NC(=O)[C@@H](C(C)C)OC1=O", "answerLabel": "NOT MET"}

Lookup: Given the entry `Nc1ccc(N)c2c1C(=O)c1ccccc1C2=O` , answer whether its LUM: mean difference in luminescence (ATP content) relative to plate controls meets or surpasses 0.4.
Found: MET

Lookup: Then this compound: `Cc1cc(O)c2c(c1)C(=O)c1cc(O)cc(O)c1C2=O`
Found: NOT MET

Lookup: Try CCC(C)c1cc([N+](=O)[O-])cc([N+](=O)[O-])c1O (stereo not drawn) next.
Found: NOT MET

Lookup: What would you report for NNc1nc(-c2ccc([N+](=O)[O-])cc2)cs1 [2-Hydrazino-4-(4-nitrophenyl)thiazole] ?
Found: NOT MET

Lookup: Could you do the same for O=C1c2ccccc2C(=O)C1C(=O)C(c1ccccc1)c1ccc(Cl)cc1 (stereo not drawn) , please?
Found: MET

* * *

tested on: isolated rat liver mitochondria; assay: Oxygen consumption, Clark-type oxygen electrode; format: biochemical; conditions: 20 µM
Listing of recorded II-ADP, % of control (O2 consumption rate) by entry.

Lookup: # query: II-ADP, % of control (O2 consumption rate) | item `CC(C)(C)c1cc([N+](=O)[O-])cc([N+](=O)[O-])c1O` | system: isolated rat liver mitochondria
Found: 11 (7.7) % of control

Lookup: Next molecule up: CC[C@@H](C(=O)[C@@H](C)[C@@H](O)[C@H](C)CCc1ccc(C)c(O)c1C(=O)O)[C@H]1O[C@](CC)([C@H]2CC[C@](O)(CC)[C@H](C)O2)C[C@@H]1C [Lasalocid sodium, reference compound]
Found: 48 (28.6) % of control

* * *

system: HepG2 cells; test: Intracellular ATP content (cell viability) assay; format: cell-based, human; settings: read-out: ATP (HepG2, galactose) IC50
endpoint: IC50 (µM)
State the answer as a number, implicitly in µM.

Lookup: May I ask what IC50 has been recorded for N#CC(C#N)=NNc1ccc(OC(F)(F)F)cc1 [FCCP, reference compound] ?
Found: 4.25

* * *

Below is a list of entries, each paired with its recorded II-sub, % of control (O2 consumption rate) value.
tested on: isolated rat liver mitochondria; assay: Oxygen consumption, Clark-type oxygen electrode; type: biochemical; conditions: 0.0064 µM

{"molecule": "CO/C=C(/C(=O)OC)c1ccccc1COc1cccc(C(F)(F)F)n1", "systemName": "isolated rat liver mitochondria", "result": "101 (20.8) % of control"}
{"molecule": "CC(C)(C)c1cc([N+](=O)[O-])cc([N+](=O)[O-])c1O", "systemName": "isolated rat liver mitochondria", "result": "99 (18.4) % of control"}
{"molecule": "N#CC(C#N)=NNc1ccc(OC(F)(F)F)cc1 [FCCP, reference compound]", "systemName": "isolated rat liver mitochondria", "result": "90 (24.4) % of control"}
{"molecule": "CCCCCC[C@H]1C(=O)O[C@H](C)[C@H](NC(=O)c2cccc(NC=O)c2O)C(=O)O[C@@H](C)[C@@H]1OC(=O)CC(C)C [Antimycin A, reference compound]", "systemName": "isolated rat liver mitochondria", "result": "92 (17.1) % of control"}

// next entry
Lookup: // II-sub, % of control (O2 consumption rate) lookup, key: C=C(C)[C@H]1Cc2c(ccc3c2O[C@@H]2COc4cc(OC)c(OC)cc4[C@@H]2C3=O)O1 [Rotenone, reference compound]
Found: 56 (15.2) % of control
